These entries and their values trace back to the RNAGym collection of RNA variant scans (doi:10.1073/pnas.2313332121).

B1: TPR t1 (parent)
chain: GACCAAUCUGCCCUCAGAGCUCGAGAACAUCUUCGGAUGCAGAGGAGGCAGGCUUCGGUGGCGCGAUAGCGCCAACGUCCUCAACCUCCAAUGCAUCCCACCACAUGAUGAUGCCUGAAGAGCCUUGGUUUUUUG

# Variants of: B1
# testProtocol: polymerase ribozyme fitness, log enrichment relative to wild type (log ratio); higher = more active; in vitro selection for triplet polymerase activity
assayEndpoint: polymerase ribozyme fitness (log ratio)
Just the number, please, no unit attached.

Record excerpt, results attached:
[
  {
    "variantLabel": "G63A C88U",
    "obsValue": -1.46
  },
  {
    "variantLabel": "G45C U130C",
    "obsValue": -2.26
  },
  {
    "variantLabel": "A6U A50G C97U C115U",
    "obsValue": -2.3
  },
  {
    "variantLabel": "G47U G61U G110A",
    "obsValue": -3.87
  },
  {
    "variantLabel": "C53A C85A G135U",
    "obsValue": -2.53
  }
]

Measured polymerase ribozyme fitness (log ratio), A43U G52U A68G : -4.56

Measured polymerase ribozyme fitness (log ratio), A24U G39U G60U C115A U129C : -6.65

Measured polymerase ribozyme fitness (log ratio), A41U G113A : -1.81

Measured polymerase ribozyme fitness (log ratio), C104U A111U A119G : -1.53

Measured polymerase ribozyme fitness (log ratio), C11A C70U C76A : -3.78

Measured polymerase ribozyme fitness (log ratio), G60A U116C : -0.935

Measured polymerase ribozyme fitness (log ratio), C20U G44U A50G A74G : -3.66

Measured polymerase ribozyme fitness (log ratio), A29G A74U U109A C114U : -4.26
